Assay: OD615 S. cerevisiae growth inhibition, permissive medium, pilot counter-assay, permissive growth control for S. cerevisiae lifespan shortening project (AID 705)
Details: OD615, 24 h, at 10 µM, stronger effect = higher value
endpoint label: growth inhibition (%)
Answer format: numeric, % implied, no suffix.

These solved cases illustrate the format of a correct answer.
Please report the recorded growth inhibition for C=CCn1cc(C(=O)NCCCOC)c(=O)c2cc(S(=O)(=O)N3CCC(C)CC3)ccc21 .
-10.6

Note, next up: O=C1CCCCCN1CP(=O)(O)CCc1ccccc1
-5.01

What would you report for COc1ccc(Nc2nnc(Cc3ccccc3)c(=O)[nH]2)c(OC)c1 ?
-23.5

// same read-out, input: O=C(Nc1cccc2c1CCCC2)c1ccc(Br)o1
-11.8

Same lookup for O=C(NC1CCCCC1)N1CCC(n2c(=O)[nH]c3ccccc32)CC1 , please.
-8.88

***
Given COc1ccccc1C1CC(c2ccc(Cl)cc2Cl)Nc2nc(N)nn21 (configuration not stated) , state its recorded growth inhibition.
-5.97

Same thing, different molecule: Cc1ccc(C(=O)COC(=O)c2ccc(Br)o2)cc1C
-5.44

---

Assay: reversal of MRP1-mediated doxorubicin resistance, pilot screen, H69AR cells, doxorubicin co-treatment (AID 601)
Details: H69AR cells + 2 uM doxorubicin, CellTiter-Glo, 72 h; measured here: viability with 2 uM doxorubicin; at 10 µM; stronger effect = lower value
endpoint label: viability (%)
Number only, in %; omit the unit.

Given CN1/C(=C\C(=O)C(F)F)C(C)(C)c2ccccc21 , state its recorded viability.
87.4

And what about the compound c1ccc(-c2noc(C3CCCCC3)n2)nc1 ?
90.4

Continue with CCOC(=O)c1oc2ccccc2c1CSc1nnnn1-c1ccc(C)cc1
88

Query compound follows.
Can you look up the measured viability of O=C(CCC(=O)OCCCC(F)(F)C(F)(F)F)NC1CCCCC1 for me?
91.9

---

Catalogue of growth inhibition readings, one per entry.
Assay: Restrictive medium S. cerevisiae growth inhibition, OD615, pilot screen of yeast lifespan reduction project, restrictive growth control (AID 706);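 further: modified DeaD lifespan yeast strain shifted to restrictive glucose medium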
Settings: OD615, 48 h, at 10 µM, stronger effect = higher value
Just the number in %, nothing appended.

Record excerpt, results attached:
Which measured growth inhibition value corresponds to O=C(CSc1oc(-c2ccco2)nc1S(=O)(=O)c1ccc(Cl)cc1)NCC1CCCO1 (stereo not given) ?
2.77

Entry to check: COCCN1C(=O)c2oc3ccccc3c(=O)c2C1c1ccc(C(=O)OC)cc1 (stereo not given)
5.81

How about this molecule: COc1cc(C(=O)n2nc(C)cc2C)cc(OC)c1OC
-12.6

Next up: COc1ccc(C2=NOC(C(=O)Nc3cc(C)nn3-c3ccccc3)C2)cc1OC (stereo not given)
-31.2

Next molecule, please.
Query: growth inhibition; subject: Cc1cc(Nc2ccc(F)c(Cl)c2)n2nc(C)nc2n1
15.8

---

Assay: RAM signaling pathway blockade in yeast – S. cerevisiae, Pdr1DBD-CYC8 efflux-inhibited sensitized strain, primary screen (AID 1298);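 further: 0% = DMSO untreated cells without growth and 100% = 10 µM 1-NA-PP1 full growth; higher means more yeast growth rescued from 5-FOA killing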
Conditions: S. cerevisiae cbk1-as DSE1-URA3 strain, 5-FOA growth OD615, 2 d; at 50 µM; stronger effect = higher value
endpoint label: RAM network inhibition (%)
Value expressed in %; do not type the unit.

Example molecules with recorded RAM network inhibition:
Using the record for COC(=O)c1cn(NC(=O)c2cnccn2)c(=O)c2ccccc12 , report its RAM network inhibition.
-0.31

For Cc1nc2nc(SCC(=O)N3CCOCC3)nn2c(C)c1Cc1c(F)cccc1Cl then?
3.17

Others:
Recorded RAM network inhibition of CS(=O)(=O)N(CC(=O)N1CCN(c2ccccc2F)CC1)c1cc(C(F)(F)F)ccc1Cl , please.
0.87

---

Reported growth inhibition values are given for each entry in this list.
Experiment: Restrictive medium S. cerevisiae growth inhibition, OD615, pilot screen of yeast lifespan reduction project, restrictive growth control (AID 706);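 further: modified DeaD lifespan yeast strain shifted to restrictive glucose medium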
Conditions: OD615, 48 h, at 10 µM, stronger effect = higher value
Kindly answer with a numeric value in %, unit omitted.

Consider the following illustrative entries.
What value of growth inhibition has been recorded for this entry: Cc1ccc(CSc2nc3c(c(=O)[nH]c(=O)n3C)n2CCC(C)C)cc1
-11.3

And COc1ccccc1C(=O)Nc1nnn(C)n1 ?
6.7

How about CC1(C)CC(=O)C(C=NC2CCCCC2)=C(O)C1 ?
-1.72

Another molecule: Cc1ccc(N2Cc3ccccc3OC(C)C2=O)cc1 (configuration not stated)
0.105

Try the molecule COc1cccc2c(=O)c(C/C=C(/C)Cl)c(C)[nH]c12
5.71

Record: c1ccc(-n2ncc3c2ncn2c(C4CCCCC4)nnc32)cc1
-6.54

Query CCC(=O)NCCn1c(C)cc2ccccc21 next
11.4

Try this molecule too: CCOC(=O)N1CCC(NC(=O)CN2C(=O)CSc3ncccc32)CC1
-5.29

---
What value of growth inhibition has been recorded for this entry: CCCCCCNC(=O)C(C(=O)OCC)C1CCCCC1 (configuration not stated)
-1.5

Then Cn1ccnc1SCC(=O)Nc1cccc(C(F)(F)F)c1 ?
10.5

Ok, now CC(C)n1c(SCCCc2ccccc2)nc2c1c(=O)[nH]c(=O)n2C
4.52

Also Cc1ccc2oc(=O)c3cnn(CC(=O)NC4CCN(Cc5ccccc5)CC4)c3c2c1 ?
0.24

Would you kindly repeat that for O=C(CCc1ccccc1)N1CCN(CCO)CC1 ?
9.8

Consider next the molecule c1cncc(-c2noc(-c3ccco3)n2)c1 in the same way.
7

---

Test: reducers of endogenous Her2 protein level, primary screen, SKBR3 breast tumor cells, AlphaScreen, ATP viability (AID 461);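 on viability: percent of carrier control wells set as 100% viability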
Conditions: 18-24 h, measured here: SKBR3 viability, ATP luminescence, at 10 µM
The molecules listed here are annotated with their viability.
The reply should be a number in %, with the unit left off.

For orientation, consider the following solved cases.
Recorded viability for COc1ccc(N2CCN(C(c3cccs3)C(C)NC(=O)c3ccco3)CC2)cc1 (stereo not given) , please?
90

Another molecule to check: COCCN1C(=O)c2oc3c(C)cc(C)cc3c(=O)c2C1c1cccc(O)c1 (stereo not given)
101

Let us move to another entry and its viability.
Which value of viability has been reported for O=C(O)c1cccnc1Nc1cccc(C(F)(F)F)c1 in the records?
100

---

Experiment: reversal of MRP1-mediated doxorubicin resistance, pilot screen, H69AR cells, doxorubicin co-treatment (AID 601)
Details: H69AR cells + 2 uM doxorubicin, CellTiter-Glo, 72 h; measured here: viability with 2 uM doxorubicin; at 10 µM; stronger effect = lower value
Here, each record is paired with measured viability data.

Recorded viability of CCN(CC)C(=O)CSc1nc2ccccc2c(=O)n1CCC(=O)NCc1ccc(F)cc1 , please.
89.6%

Please answer likewise for CCn1c(SC)nc2c(c1=O)SC(C)C2 (centres undefined)
81.2%

Now this one: CCOC(=O)N1CCN(CC(O)COc2ccccc2C(C)CC)CC1 (centres undefined)
93.2%

Turning now to a further compound:
Which value of viability has been reported for Cc1nc(NCc2ccco2)c2oc3ccccc3c2n1 in the records?
81.8%

---

Target: Receptor tyrosine-protein kinase erbB-2 (Homo sapiens)
Assay: reducers of endogenous Her2 protein level, primary screen, SKBR3 breast tumor cells, AlphaScreen, ATP viability (AID 461);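 on Her2 level: lower value means less Her2 protein in the cells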;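 on viability: percent of carrier control wells set as 100% viability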
Conditions: 18-24 h, at 10 µM, stronger effect = lower value
This section presents compounds with their documented Her2 level values.
Write the value in % as a bare number.

So what's the measured Her2 level for this one? O=C(c1ccco1)N1CCN(c2cccc(Cl)c2)CC1
103

Same again, this time with CCN(CC)c1nc2nonc2nc1N(CC)CC
92

Ok, now O=C(O)c1cc(=O)c2c(OCC(O)COc3cccc4oc(C(=O)O)cc(=O)c34)cccc2o1
102

Then what about the compound COc1ccc(-c2coc3cc(O)cc(O)c3c2=O)cc1 ?
99

New cases:
Reported Her2 level, compound Cc1ccc(-c2nnn(CC(=O)N(Cc3ccco3)C(C(=O)NC(C)(C)C)c3cccs3)n2)o1 (stereo not drawn) : ____
81

And then CCC1(C)Cc2c(C#N)c(N)n(N)c(=S)c2CO1 (stereo not drawn) , what is it?
97.5

Same again, this time with O=c1c2ccccc2nnn1CSc1nnc2sc3ccccc3n12
64

Would you kindly repeat that for COc1ccccc1N1CCN(C(=O)c2c(-c3c(Cl)cccc3Cl)noc2C)CC1 ?
82.5

What do we get for CCC(=NC(C)c1ccccc1)c1c(O)n(C)c(=O)n(C)c1=O (stereo not drawn) ?
88

Also Cc1nnc(SCC(=O)N2CC(=O)Nc3ccccc32)n1-c1ccccc1 ?
90

Here is the next compound: CCC(C)(C(=O)NC1CCCCC1)N(Cc1ccco1)C(=O)c1cnccn1 (stereo not drawn)
98

Record: COC(=O)c1c(O)ccc(Oc2ccccc2)c1C(=O)OC
119

Now consider CCOC(=O)N1CCN(C(=O)C2c3cc(OC)c(OC)cc3C(=O)N3CCc4ccccc4C23)CC1 (stereo not drawn) and answer again.
97

Also CC(COc1ccccc1)NC(C)C(O)c1ccc(O)cc1 (stereo not drawn) , if possible.
105

Now the same for CCCCC1C(=O)N(c2ccccc2)N(c2ccccc2)C1=O
90.5

Now try O=C(COc1ccc(Cl)cc1)NCc1nnc(SCC(=O)Nc2ccc3c(c2)OCCO3)o1 .
122

How about this compound: Cc1ccc(C)c(N2CCN(C(=O)c3ccc(CS(=O)(=O)c4ccccc4C)o3)CC2)c1
66.5

Field entry: O=C(NCC(=O)N(c1cnc2ccccc2c1)C(C(=O)NC1CCCC1)c1ccncc1)c1ccco1 (stereo not drawn)
94
